Consider compounds characterized by their GI50 with OVCAR-3.
measuredMetric: GI50 (µM)

> print(dat)
                            substancesmiles  measureunit  measvalue
1  O=C(NCc1cn(Cc2cccc(Oc3ccccc3)c2)nn1)c1cccnc1Nc1ccccc1           µM       17.7
2  O=C(NCc1cn(Cc2cccc(Oc3ccccc3)c2)nn1)c1cccnc1NCc1ccc(Cl)cc1           µM       3.48
3  COc1ccc(Nc2ncccc2C(=O)NCc2cn(Cc3cccc(Oc4ccccc4)c3)nn2)cc1           µM       3.69
4  COc1cc(Nc2ncccc2C(=O)NCc2cn(Cc3cccc(Oc4ccccc4)c3)nn2)cc(OC)c1           µM       3.69
5  O=C(NCc1cn(Cc2cccc(Oc3ccccc3)c2)nn1)c1cccnc1Nc1ccc(F)cc1           µM       2.98
6  COc1ccc(Nc2ncccc2C(=O)NCc2cn(Cc3cccc(Oc4ccccc4)c3)nn2)c(OC)c1           µM       1.54
